# System: PfAP2-I AP2 domain 3 (GST-tagged)
# assay summary: gcPBM binding intensity (ln(normalized median fluorescence intensity)); higher = stronger DNA binding
The full ranking holds about 25,000 sequences; the median of “ln(normalized median fluorescence intensity)” is about 7.9, and the highest 2% start at about 11. For the sample, the highest values were picked, then their nearest neighbours and some sequences at random.
# binning rule on gcPBM binding intensity (ln): low bracket = under 8, middle bracket = from 8 up to 10, high bracket = 10 and over

{"sequence record": "TCGTGCATAAATCATACACACACACCGATATATATA [CACACA_site8767]", "class": "high bracket"}
{"sequence record": "ATATATATATTATATGCACACTAATAAGACTATTTA [CACACA_site5880]", "class": "middle bracket"}
{"sequence record": "TATATATATATATATGCATGTACATATATTTGTTAT [TGCATGCA_site379]", "class": "middle bracket"}
{"sequence record": "ACAAATCTAAGATAGTGTACATTTATATATATATAT [XGTACX_site8740]", "class": "middle bracket"}
{"sequence record": "ATATATATATATAGTGCACACATATAAAATATATAT [CACACA_site8884]", "class": "high bracket"}
{"sequence record": "AAATATAATATATGCACACATACATACATATATATA [CACACA_site104]", "class": "middle bracket"}
{"sequence record": "TATATATATATGTGCACACATAATAAAAAAAAAAAT [CACACA_site3831]", "class": "high bracket"}
{"sequence record": "ATATAAATATAGTGTGCACACACATAATATATATAT [CACACA_site8713]", "class": "middle bracket"}
{"sequence record": "GTTGTGTAATTCGTAACACACATAAAATATATATAA [CACACA_site6059]", "class": "low bracket"}
{"sequence record": "TATATATGTTTATGTAGTACTATATATCCCTTTCTT [XGTACX_site7049]", "class": "low bracket"}
{"sequence record": "TAATATATATAACAAGTGCAAAAAAATATAGATATT [GTGCAC_site9625]", "class": "middle bracket"}
{"sequence record": "ACTATTAAGAATAAAGAAATATGTAATTGTATTTAA [CACACA_negctrl_site516]", "class": "low bracket"}
{"sequence record": "TAATATAATATATAGGTGCAATATTAACAAAAATTT", "class": "high bracket"}
{"sequence record": "TAAACAAATAAATATTGTACATTTTTTCCTTTTAAT [XGTACX_site5594]", "class": "low bracket"}
{"sequence record": "AAATATAATATATGCACACATACATACAGATATATA [CACACA_site4235]", "class": "middle bracket"}
{"sequence record": "ATTACACATATAGTAGTGCAATAACTCCAAAAAAAA", "class": "high bracket"}
{"sequence record": "TATTACAAATATGGCACACATATATATATATATATT [CACACA_site3268]", "class": "middle bracket"}
{"sequence record": "TATATATATATATATTGTACACATTGTGTTTAAATA [XGTACX_site5104]", "class": "middle bracket"}
{"sequence record": "ATATATATATAGTACGCACACATAGTTGTACATTAA [CACACA_site2787]", "class": "middle bracket"}
{"sequence record": "TATATTAACAAAATGGTGCAATAATTTCTATATTAT [GTGCAC_site9857]", "class": "high bracket"}
{"sequence record": "TTTTTAATTCAAAAAATAATATATTATATTTCAAAT [CACACA_negctrl_site737]", "class": "low bracket"}
{"sequence record": "TTTTCTTAAAAAATCAAACACACATATATATATACA [CACACA_site2297]", "class": "low bracket"}
{"sequence record": "TATTAATTTAAATGGGTGCAAAACCTATATAAATAT", "class": "high bracket"}
{"sequence record": "TTCAAAAGATATATCGTGCACATATATATGATGAAA", "class": "high bracket"}
{"sequence record": "TTTGAAATAAATAATGCACACTCTACATATATACGT [CACACA_site2244]", "class": "high bracket"}
{"sequence record": "TTACAAAAATGTGGTTGTACACAAACAAAAAAAATA [XGTACX_site8506]", "class": "middle bracket"}
{"sequence record": "AAGAAAAGCATAGATGCACACATATATATATATATA [CACACA_site8675]", "class": "middle bracket"}
{"sequence record": "GTTGAAAAAAAAAATGCACACGCATACATATAATAT [CACACA_site8117]", "class": "middle bracket"}
{"sequence record": "GTGCATAAATCATACACACACACATATATAAATATA [CACACA_site7188]", "class": "high bracket"}
